Recorded Kd for compounds tested on Somatostatin receptor type 1 (Homo sapiens), drawn from a number of studies.
Sequence (P30872 whole entry): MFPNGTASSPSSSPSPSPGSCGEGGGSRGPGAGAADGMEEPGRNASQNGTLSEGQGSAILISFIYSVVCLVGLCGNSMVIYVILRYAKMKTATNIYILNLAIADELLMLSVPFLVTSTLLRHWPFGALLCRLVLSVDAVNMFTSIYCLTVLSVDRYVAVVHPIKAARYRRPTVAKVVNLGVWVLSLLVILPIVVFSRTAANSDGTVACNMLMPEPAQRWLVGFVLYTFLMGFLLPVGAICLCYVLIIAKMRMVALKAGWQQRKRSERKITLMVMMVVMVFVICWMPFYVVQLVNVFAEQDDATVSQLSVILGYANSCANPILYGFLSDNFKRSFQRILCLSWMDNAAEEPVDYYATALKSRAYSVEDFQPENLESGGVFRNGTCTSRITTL
Experimental readout: Kd (nM)

>>> assay_result("COC(=O)c1cc(CC(C)CN2C[C@H]3CCCC[C@H]3[C@@H](C(=O)N3CCN(c4ccc([N+](=O)[O-])cc4)CC3)C2)cc(C(=O)OC)c1 (mixture of isomers)")
2340
>>> assay_result("C[C@@H](Cc1ccc2c(c1)OCO2)CN1C[C@@H]2CCCC[C@@H]2[C@H](C(=O)N2CCN(c3ccc(F)c(F)c3)CC2)C1")
912
>>> assay_result("CN(CCC(=O)N1CCN(c2ccc3nonc3c2)CC1)CCC1c2ccccc2-c2ccccc21")
2.63
>>> assay_result("CN(CCC(=O)N1CCN(c2ccc(F)c(F)c2)CC1)CCC1c2ccccc2Oc2ccccc21")
1.62
>>> assay_result("CN(CCC(=O)N1CCN(c2ccc([N+](=O)[O-])cc2)CC1)CCC1c2ccccc2-c2ccccc21")
7.59
>>> assay_result("C[C@@H](O)[C@@H]1NC(=O)[C@H](CCCCN)NC(=O)[C@@H](Cc2c[nH]c3ccccc23)NC(=O)[C@H](Cc2ccccc2)NC(=O)CN(Cc2ccccc2)C(=O)[C@H](Cc2ccccc2)NC1=O")
7080
>>> assay_result("C[C@@H](Cc1ccc2nccnc2c1)CN1C[C@@H]2CCCC[C@@H]2[C@H](C(=O)N2CCN(c3ccc(F)c(F)c3)CC2)C1")
2630
>>> assay_result("COC(=O)c1cc(CC(C)CN2C[C@@H]3CCCC[C@@H]3[C@H](C(=O)N3CCN(c4ccc([N+](=O)[O-])cc4)CC3)C2)cc(C(=O)OC)c1 (mixture of isomers)")
398
>>> assay_result("C[C@@H](O)[C@@H]1NC(=O)[C@H](CCCCN)NC(=O)[C@@H](Cc2c[nH]c3ccccc23)NC(=O)[C@H](Cc2ccccc2)NC(=O)CN([C@@H](C)c2ccccc2)C(=O)[C@H](Cc2ccccc2)NC1=O")
13200
>>> assay_result("CCOc1ccc(C[C@H](C)CN2C[C@@H]3CCCC[C@@H]3[C@H](C(=O)N3CCN(c4ccc(F)c(F)c4)CC3)C2)cn1")
2340
>>> assay_result("CC(Cc1ccc2c(c1)OCO2)CN1C[C@@H](C(=O)N2CCN(c3ccc([N+](=O)[O-])cc3)CC2)C[C@@H]2CCCC[C@H]21 (mixture of isomers)")
537
>>> assay_result("C[C@@H](Cc1ccc2ncnn2c1)CN1C[C@@H]2CCCC[C@@H]2[C@H](C(=O)N2CCN(c3ccc(F)c(F)c3)CC2)C1")
9120
